Read-out: Thrombomodulin, THBD (gene 7056)
assay-explanation: BSK_CASM3C_Thrombomodulin: BioMAP Diversity Plus: CASM3C Assay for Thrombomodulin Biomarker Activity (AID 2283051);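 further: thrombomodulin protein level measured by ELISA 24 h after dosing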
measurement-conditions: primary human coronary artery smooth muscle cells; actives raise or lower the signal
Activity calls are given as the source filed them. How the source made its calls: active means hit-call score of the fitted dose curve at least 0.9, where 1 is the maximum; inactive means score below 0.9.
Write down the outcome that applies. Available outcomes: active, inactive

Record request — test call for C=C[Si](OCC)(OCC)OCC
inactive

Record request — test call for CN(CCOc1ccc(CC2SC(=O)NC2=O)cc1)c1ccccn1 (stereo not drawn)
inactive

Record request — test call for CC1CCC(C(C)CS)CC1S (stereo not drawn)
active

---

assay-target: Bile acid receptor (Homo sapiens) (UniProt Q96RI1)
Sequence (Q96RI1 whole entry, looked up): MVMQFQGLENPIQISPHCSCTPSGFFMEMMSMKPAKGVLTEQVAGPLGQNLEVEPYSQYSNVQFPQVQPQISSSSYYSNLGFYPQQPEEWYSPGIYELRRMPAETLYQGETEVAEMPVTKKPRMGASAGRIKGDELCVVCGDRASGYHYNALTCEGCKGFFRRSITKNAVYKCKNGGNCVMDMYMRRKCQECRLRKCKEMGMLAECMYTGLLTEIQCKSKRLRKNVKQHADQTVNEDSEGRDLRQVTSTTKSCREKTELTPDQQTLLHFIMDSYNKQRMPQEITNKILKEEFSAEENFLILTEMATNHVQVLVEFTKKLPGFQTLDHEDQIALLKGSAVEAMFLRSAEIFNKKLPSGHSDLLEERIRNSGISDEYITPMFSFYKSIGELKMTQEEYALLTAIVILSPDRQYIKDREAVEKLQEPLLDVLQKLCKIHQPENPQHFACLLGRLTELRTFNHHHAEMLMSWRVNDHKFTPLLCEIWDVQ
assay-explanation: ATG_IR1_CIS: Attagene CIS-FACTORIAL HepG2 Assay for human Nuclear Receptor Subfamily 1 Group H Member 4 (NR1H4), IR1 submotif (AID 2282946)
measurement-conditions: IR1 reporter transcription, actives raise or lower the signal
The source made the active and inactive calls. How the source made its calls: active means hit-call score of the fitted dose curve at least 0.9, where 1 is the maximum; inactive means score below 0.9.
Write down the outcome that applies. Available outcomes: label 1 for active, label 0 for inactive

Record request — test call for CCCC(=O)c1cc(O)c(O)cc1O
label 0

Record request — test call for COc1cc2ncnc(Nc3cccc(Cl)c3)c2cc1OC
label 0

Record request — test call for CN(CCOc1ccc(CC2SC(=O)NC2=O)cc1)c1ccccn1 (centres undefined)
label 0

Record request — test call for COc1cccc(OC)c1
label 0

Record request — test call for CCCCO
label 0

Record request — test call for Cc1c(N(C)C)c(=O)n(-c2ccccc2)n1C
label 0

Record request — test call for CC(=O)OCCC(C)CC(C)(C)C (centres undefined)
label 0

Record request — test call for NCCCN1CCOCC1
label 0

Record request — test call for CCCC(C)C=O (centres undefined)
label 0

Record request — test call for O=Cc1ccc(F)cc1
label 0

Record request — test call for Cc1c(Cl)c(=O)oc2cc(O)ccc12
label 0

Record request — test call for OC1C(O)C(O)C(O)C(O)C1O (centres undefined)
label 0

Record request — test call for CNCCO
label 0

Record request — test call for COc1cc(C(C)(C)C)c(O)c(C(C)(C)C)c1
label 1

Record request — test call for Sc1nc(S)nc(S)n1
label 0

Record request — test call for CC(C)(N)CO
label 0

Record request — test call for c1ccc2c(c1)c1cccc3ccc4cccc2c4c31
label 0

Record request — test call for CCC(C(=O)NC(N)=O)c1ccccc1 (centres undefined)
label 0

Record request — test call for C=CC(=O)NCOCC(C)C
label 0

Record request — test call for CSc1nnc(C(C)(C)C)c(=O)[nH]1
label 0

Record request — test call for CC1(C)CCC(C)(C)c2cc(C(=O)Nc3ccc(C(=O)O)cc3)ccc21
label 1

Record request — test call for NC(=O)c1ccccc1Cl
label 0

Record request — test call for C[Si](O[Si](C)(C)C)O[Si](C)(C)C
label 0

Record request — test call for Cc1ccc2n[nH]nc2c1
label 0

Record request — test call for c1ccc(CCCc2ccccn2)cc1
label 0

Record request — test call for COc1c(Cl)c(Cl)c(Cl)c(Cl)c1Cl
label 0

Record request — test call for NNc1nc(-c2ccc(N)cc2)cs1
label 0

Record request — test call for CCCCC/C=C/C=C/C=O
label 1

Record request — test call for O=Cc1ccc(Cl)c([N+](=O)[O-])c1
label 1

Just for reference, PubChem BioAssay (EPA / NIEHS) is where these values come from.
